target: NaV1.3 (Homo sapiens, UniProt Q9NY46); construct: expressed in transfected cells; experiment: VIPR optical membrane potential assay with electrical stimulation, HEK293 cells stably expressing NaV1.3; type: cell-based; conditions: compound activity for the NaV1.3 receptors
Sequence (Q9NY46 whole entry): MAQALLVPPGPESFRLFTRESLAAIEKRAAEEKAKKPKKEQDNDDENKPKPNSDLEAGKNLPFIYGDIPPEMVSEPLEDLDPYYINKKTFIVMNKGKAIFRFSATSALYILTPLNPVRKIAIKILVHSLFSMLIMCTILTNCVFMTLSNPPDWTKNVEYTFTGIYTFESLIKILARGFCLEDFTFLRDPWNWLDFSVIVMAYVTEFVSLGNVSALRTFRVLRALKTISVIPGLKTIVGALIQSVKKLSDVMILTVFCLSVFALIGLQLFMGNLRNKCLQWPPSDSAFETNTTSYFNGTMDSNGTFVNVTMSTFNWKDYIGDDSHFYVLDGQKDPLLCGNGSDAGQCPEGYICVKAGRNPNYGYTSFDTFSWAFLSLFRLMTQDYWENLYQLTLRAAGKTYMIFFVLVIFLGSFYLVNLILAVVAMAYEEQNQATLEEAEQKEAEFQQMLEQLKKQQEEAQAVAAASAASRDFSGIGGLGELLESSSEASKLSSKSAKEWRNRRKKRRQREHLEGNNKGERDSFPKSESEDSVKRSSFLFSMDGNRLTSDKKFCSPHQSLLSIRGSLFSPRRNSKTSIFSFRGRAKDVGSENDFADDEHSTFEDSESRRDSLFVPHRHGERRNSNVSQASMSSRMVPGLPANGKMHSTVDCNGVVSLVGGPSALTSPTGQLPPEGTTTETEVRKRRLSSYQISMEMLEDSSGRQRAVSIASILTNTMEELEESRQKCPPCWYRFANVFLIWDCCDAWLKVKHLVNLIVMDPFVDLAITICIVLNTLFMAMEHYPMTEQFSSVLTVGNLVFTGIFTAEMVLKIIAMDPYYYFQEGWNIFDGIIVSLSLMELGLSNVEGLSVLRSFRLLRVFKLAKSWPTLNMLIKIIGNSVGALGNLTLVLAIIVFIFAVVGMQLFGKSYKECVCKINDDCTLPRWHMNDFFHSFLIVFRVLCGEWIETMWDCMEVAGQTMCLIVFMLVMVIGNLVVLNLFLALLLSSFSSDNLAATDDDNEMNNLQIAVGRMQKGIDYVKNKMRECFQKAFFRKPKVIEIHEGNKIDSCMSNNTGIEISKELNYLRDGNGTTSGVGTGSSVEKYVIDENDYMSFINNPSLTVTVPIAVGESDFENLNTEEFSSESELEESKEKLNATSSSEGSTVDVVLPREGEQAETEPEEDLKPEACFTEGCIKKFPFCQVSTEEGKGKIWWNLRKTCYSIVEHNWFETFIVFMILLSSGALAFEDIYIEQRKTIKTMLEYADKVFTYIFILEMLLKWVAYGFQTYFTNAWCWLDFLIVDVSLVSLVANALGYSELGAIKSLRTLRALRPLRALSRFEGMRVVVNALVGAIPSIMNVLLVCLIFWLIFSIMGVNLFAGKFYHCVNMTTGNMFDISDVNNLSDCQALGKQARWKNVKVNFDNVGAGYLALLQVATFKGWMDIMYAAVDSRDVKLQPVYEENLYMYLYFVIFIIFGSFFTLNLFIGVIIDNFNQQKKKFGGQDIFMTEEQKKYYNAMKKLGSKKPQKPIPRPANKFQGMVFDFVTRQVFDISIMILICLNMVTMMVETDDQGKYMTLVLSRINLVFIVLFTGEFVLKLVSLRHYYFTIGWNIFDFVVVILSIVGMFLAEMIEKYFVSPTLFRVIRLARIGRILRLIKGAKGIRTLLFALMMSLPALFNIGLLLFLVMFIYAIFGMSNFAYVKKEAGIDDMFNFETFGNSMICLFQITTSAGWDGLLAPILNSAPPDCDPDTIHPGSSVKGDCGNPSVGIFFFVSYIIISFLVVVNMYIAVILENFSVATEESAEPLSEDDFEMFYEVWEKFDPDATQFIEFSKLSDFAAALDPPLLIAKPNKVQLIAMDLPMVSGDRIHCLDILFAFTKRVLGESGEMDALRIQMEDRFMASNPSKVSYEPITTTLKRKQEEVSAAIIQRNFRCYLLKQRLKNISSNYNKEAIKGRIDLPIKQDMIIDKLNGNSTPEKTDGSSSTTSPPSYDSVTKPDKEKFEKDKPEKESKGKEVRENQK
measured attribute: IC50

Field: example entries. Status: answers known.
{"columns": ["molecule", "measured attribute", "result"],
 "data": [
  ["COC(=O)NS(=O)(=O)c1ccc(NC(=O)[C@@H](CC(C)C)n2ccc3c(F)cccc32)cc1 [Compound 23]", "IC50", "< 2 µM"],
  ["COC(=O)NS(=O)(=O)c1ccc(NC(=O)Cn2cc(C#N)c3ccccc32)cc1 [Compound 19]", "IC50", "> 5 µM"],
  ["Cc1cc(C(=O)NS(=O)(=O)c2ccc(NC(=O)[C@@H](C)n3ccc4c(F)cccc43)cc2)c(C)o1 [Compound 66]", "IC50", "> 5 µM"],
  ["COC(=O)NS(=O)(=O)c1ccc(NC(=O)[C@@H](CO)N2CCCc3cc(Cl)ccc32)cc1 [Compound 73]", "IC50", "> 5 µM"],
  ["COC(=O)NS(=O)(=O)c1ccc(NC(=O)[C@@H](CC(C)C)N2CCCc3cc(Cl)ccc32)cc1 [Compound 86]", "IC50", "2 to 5 µM"],
  ["COC(=O)NS(=O)(=O)c1ccc(C2CCN(C(=O)Cn3ccc4ccc(Cl)cc43)CC2)cc1 [Compound 32]", "IC50", "> 5 µM"],
  ["COC(=O)NS(=O)(=O)c1ccc(NC(=O)c2cc3c(F)cc(Cl)cc3[nH]2)cc1 [Compound 81]", "IC50", "> 5 µM"]
]}

Next item in the queue.
Challenge: Identify measured IC50 associated with COC(=O)NS(=O)(=O)c1ccc(NC(=O)Cn2ccc3cccc(Cl)c32)cc1 [Compound 28]
Response given: > 5 µM

###

molecular target: NaV1.3 (Homo sapiens); construct: expressed in transfected cells; test: VIPR optical membrane potential assay with electrical stimulation, HEK293 cells stably expressing NaV1.3; assay type: cell-based; conditions: compound activity for the NaV1.3 receptors
pIC50: −log10 of the molar value.
Consider the following compounds and their measured pIC50 readings.

Here is how some compounds turned out for pIC50.
{"columns": ["compound", "pIC50"],
 "data": [
  ["COC(=O)NS(=O)(=O)c1ccc(NC(=O)[C@@H](C(C)C)N2CCCc3cc(Cl)ccc32)cc1", "5.30 to 5.70"],
  ["COC(=O)NS(=O)(=O)c1ccc(NC(=O)[C@@H](C)N2CCCc3ccccc32)cc1", "< 5.30"],
  ["COC(=O)NS(=O)(=O)c1ccc(NC(=O)[C@@H](C)n2ccc3cccc(F)c32)cc1", "< 5.30"],
  ["COC(=O)NS(=O)(=O)c1ccc(NC(=O)Cn2ccc3ccc(C(F)(F)F)cc32)cc1", "< 5.30"],
  ["COC(=O)NS(=O)(=O)c1ccc(NC(=O)[C@H](C(C)C)N2CCCc3cc(Cl)ccc32)cc1", "< 5.30"],
  ["COC(=O)NS(=O)(=O)c1ccc(NC(=O)C(C)Oc2ccc(Cl)cc2C)cc1 (stereo not shown)", "< 5.30"],
  ["COC(=O)NS(=O)(=O)c1ccc(NC(=O)[C@H](C)n2ccc3ccc(Cl)cc32)cc1", "< 5.30"],
  ["CCOC(=O)NS(=O)(=O)c1ccc(N2CCN(C(=O)[C@@H](C)N3CCCc4cc(Cl)ccc43)CC2)cc1", "< 5.30"],
  ["COC(=O)NS(=O)(=O)c1ccc(NC(=O)Cn2ccc3c(C#N)cccc32)cc1", "< 5.30"],
  ["COC(=O)NS(=O)(=O)c1ccc(NC(=O)c2cc3c(F)cccc3[nH]2)cc1", "< 5.30"]
]}

Challenge: Return reported pIC50. Input compound: COC(=O)NS(=O)(=O)c1ccc(NC(=O)Cn2ccc3cccc(F)c32)cc1
Response given: < 5.30

Challenge: In one line, give reported pIC50 of the entry C[C@H](C(=O)Nc1ccc(S(=O)(=O)NC(N)=O)cc1)n1ccc2c(F)cccc21 .
Response given: 5.30 to 5.70

Challenge: Indicate the recorded pIC50 value for this compound: CC(=O)NS(=O)(=O)c1ccc(N)cc1
Response given: < 5.30

Challenge: Return pIC50 for the following compound: COC(=O)NS(=O)(=O)c1ccc(NC(=O)[C@@H](C)N2CCCc3cc(Cl)ccc32)cc1
Response given: > 5.70

Challenge: Tell us which pIC50 value is on record for CCC(=O)NS(=O)(=O)c1ccc(NC(=O)C(C)n2ccc3ccccc32)cc1 (stereo not shown)
Response given: < 5.30

Challenge: Give me measured pIC50, please, for this compound: COC(=O)NS(=O)(=O)c1ccc(NC(=O)NC2Cc3ccccc3C2)cc1
Response given: < 5.30
